Study System: T1, HLA-A*03:01 (human)
T1 construct: MHC class I monomer first loaded with a UV-sensitive peptide that is cleaved by UV irradiation and exchanged for the test peptide; captured on streptavidin plates; also called peptide-receptive MHC molecules
Assay Info: UV-ligand exchange, anti-b2m ELISA; peptide exchange yield grade (>10% +, >20% ++, >50% +++, >75% ++++)
Assay Endpoint: peptide exchange yield

Look up peptide exchange yield for the entries below, preserving their order.
1. ALNDRFAGY
2. KTLGKIAEK
3. KTGWFTLLY
4. RLSAESKDLLK
5. IVAFIPLSNK
6. KIWQNLRLK
7. KIKKPLSYR
8. RIYVYVKRK

1: 50 to 75%; 2: > 75%; 3: > 75%; 4: 50 to 75%; 5: > 75%; 6: 50 to 75%; 7: > 75%; 8: 50 to 75%

Look up peptide exchange yield for the entries below, preserving their order.
1. ALARVSSVKL
2. RVRALGSQY
3. SPRVYWLGLNDR
4. RLYYSFKNITK

["50 to 75%", "> 75%", "10 to 20%", "> 75%"]

Look up peptide exchange yield for the entries below, preserving their order.
1. RTALLWGLKK
2. RTIEELQNK
3. VVTGNVPLK
4. SLRGSFPILY
5. KVLEPPLGAR
6. KVADFGLARLLK
7. KRIPFRPLAK
8. VLLLLSLLH

1. > 75%
2. 50 to 75%
3. 50 to 75%
4. 10 to 20%
5. 50 to 75%
6. > 75%
7. 20 to 50%
8. 20 to 50%

Look up peptide exchange yield for the entries below, preserving their order.
1. PLAMLAATCNK
2. KGPMAGILAY
3. GIFPKIMPK

1. 20 to 50%
2. 20 to 50%
3. > 75%

Recorded values, source patent US20200000897A1.
